- Target desc: human CB1 (cannabinoid receptor 1) (Homo sapiens, UniProt P21554)
- Sequence (P21554 whole entry): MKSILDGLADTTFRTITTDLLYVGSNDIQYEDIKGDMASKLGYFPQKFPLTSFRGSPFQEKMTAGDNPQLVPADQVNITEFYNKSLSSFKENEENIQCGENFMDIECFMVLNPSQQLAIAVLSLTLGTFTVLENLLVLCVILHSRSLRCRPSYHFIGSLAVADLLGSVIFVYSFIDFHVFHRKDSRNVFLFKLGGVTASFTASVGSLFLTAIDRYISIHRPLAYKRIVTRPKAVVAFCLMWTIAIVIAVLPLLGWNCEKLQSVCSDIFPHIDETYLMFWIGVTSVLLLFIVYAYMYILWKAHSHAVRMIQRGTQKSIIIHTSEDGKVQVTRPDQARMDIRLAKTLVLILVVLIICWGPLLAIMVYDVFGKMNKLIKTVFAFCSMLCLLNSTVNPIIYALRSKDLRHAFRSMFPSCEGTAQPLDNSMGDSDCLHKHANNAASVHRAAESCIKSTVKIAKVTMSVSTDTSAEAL
- Assay name: CB1 receptor inhibition effect: calcium ion influx assay (Fluo-4 NW) in Chem-1 cells after 1 μM R-(+)-WIN55212-2
- Experimental setup: calcium ion influx in Chem-1 cells expressing human CB1, 1 μM R-(+)-WIN55212-2
Property: pIC50
Keep in mind that pIC50 stands for -log10 of concentration in molar terms.

Provide measured pIC50 on human CB1 (cannabinoid receptor 1) (Homo sapiens, UniProt P21554) for Cc1nn2c(-c3ccc(F)cc3)cc(N3CCC[C@H]3CO)nc2c1-c1ccc(Cl)c(Cl)c1 please.
6.51

Provide measured pIC50 on human CB1 (cannabinoid receptor 1) (Homo sapiens, UniProt P21554) for CSc1ccc(-c2c(C)nn3c(-c4ccc(F)cc4)cc(N4CCC[C@H]4CO)nc23)cc1 please.
6.77

Provide measured pIC50 on human CB1 (cannabinoid receptor 1) (Homo sapiens, UniProt P21554) for COc1ccc(-c2c(C)nn3c(-c4ccc(Cl)cc4)cc(N4CCC[C@H]4CO)nc23)cc1 please.
6.80

Provide measured pIC50 on human CB1 (cannabinoid receptor 1) (Homo sapiens, UniProt P21554) for Cc1nn2c(-c3ccc(F)cc3)cc(N3CCC[C@H]3CO)nc2c1-c1ccc(C(F)F)cc1 please.
7.03

Provide measured pIC50 on human CB1 (cannabinoid receptor 1) (Homo sapiens, UniProt P21554) for Cc1nn2c(-c3ccc(F)cc3F)cc(N3CCC[C@H]3CO)nc2c1-c1ccc(Cl)cc1 please.
6.96

Provide measured pIC50 on human CB1 (cannabinoid receptor 1) (Homo sapiens, UniProt P21554) for Cc1ccc(-c2cc(N3CCC[C@H]3CO)nc3c(-c4ccc(Cl)cc4)c(C)nn23)cc1 please.
6.57

Provide measured pIC50 on human CB1 (cannabinoid receptor 1) (Homo sapiens, UniProt P21554) for Cc1cccc(-c2cc(N3CCC[C@H]3CO)nc3c(-c4ccc(C(F)F)cc4)c(C)nn23)c1 please.
6.96

Provide measured pIC50 on human CB1 (cannabinoid receptor 1) (Homo sapiens, UniProt P21554) for Cc1ccc(-c2c(C)nn3c(-c4ccc(F)c(F)c4)cc(N4CCC[C@H]4CO)nc23)cc1F please.
6.82

Provide measured pIC50 on human CB1 (cannabinoid receptor 1) (Homo sapiens, UniProt P21554) for COc1cccc(-c2cc(N3CCC[C@H]3CO)nc3c(-c4ccc(Cl)cc4)c(C)nn23)c1 please.
6.70

Provide measured pIC50 on human CB1 (cannabinoid receptor 1) (Homo sapiens, UniProt P21554) for Cc1nn2c(-c3cc(F)cc(F)c3)cc(N3CCC[C@H]3CO)nc2c1-c1ccc2c(c1)OCO2 please.
7.15

Provide measured pIC50 on human CB1 (cannabinoid receptor 1) (Homo sapiens, UniProt P21554) for Cc1nn2c(-c3ccccc3)cc(N3CCC[C@H]3CO)nc2c1-c1ccc(Cl)cc1 please.
7.02

Provide measured pIC50 on human CB1 (cannabinoid receptor 1) (Homo sapiens, UniProt P21554) for Cc1nn2c(-c3cccc(C(F)(F)F)c3)cc(N3CCC[C@H]3CO)nc2c1-c1ccc(F)cc1F please.
6.92

Provide measured pIC50 on human CB1 (cannabinoid receptor 1) (Homo sapiens, UniProt P21554) for Cc1ccc(-c2c(C)nn3c(-c4ccc(C)cc4)cc(N4CCC[C@H]4CO)nc23)cc1 please.
6.80

Provide measured pIC50 on human CB1 (cannabinoid receptor 1) (Homo sapiens, UniProt P21554) for CCOCc1nn2c(-c3cccc(Cl)c3)cc(N(C)CCO)nc2c1-c1ccc2c(c1)OCO2 please.
6.89

Provide measured pIC50 on human CB1 (cannabinoid receptor 1) (Homo sapiens, UniProt P21554) for COCc1nn2c(-c3cccc(Cl)c3)cc(N3CCC[C@H]3CO)nc2c1-c1ccc(OC)cc1 please.
7.74

Provide measured pIC50 on human CB1 (cannabinoid receptor 1) (Homo sapiens, UniProt P21554) for COCc1nn2c(-c3cccc(C(F)(F)F)c3)cc(N3CCC[C@H]3CO)nc2c1-c1ccc(Cl)cc1 please.
8.22

###

Would you kindly list pIC50 for each of these molecules?
- Target desc: human CB1 (cannabinoid receptor 1) (Homo sapiens, UniProt P21554)
- Assay name: CB1 receptor inhibition effect: calcium ion influx assay (Fluo-4 NW) in Chem-1 cells after 1 μM R-(+)-WIN55212-2
- Experimental setup: calcium ion influx in Chem-1 cells expressing human CB1, 1 μM R-(+)-WIN55212-2
Keep in mind that pIC50 stands for -log10 of concentration in molar terms.

Check the records and state pIC50 for COCc1nn2c(-c3cccc(F)c3)cc(N3CCC[C@H]3CO)nc2c1-c1ccc(OC)cc1
8.30

Check the records and state pIC50 for CCOc1ccc(-c2c(C)nn3c(-c4ccc(F)cc4)cc(N4CCC[C@H]4CO)nc23)cc1F
6.52

Check the records and state pIC50 for CCOc1ccc(-c2c(C)nn3c(-c4cc(F)cc(F)c4)cc(N4CCC[C@H]4CO)nc23)cc1
6.70

Check the records and state pIC50 for OC[C@@H]1CCCN1c1cc(-c2cccc(C(F)(F)F)c2)n2ncc(-c3ccc(F)cc3)c2n1
6.47

Check the records and state pIC50 for CCc1cccc(-c2cc(N3CCC[C@H]3CO)nc3c(-c4ccc(C)cc4)c(C)nn23)c1
6.89

Check the records and state pIC50 for CCOCc1nn2c(-c3cccc(C(F)(F)F)c3)cc(N3CCC[C@H]3CO)nc2c1-c1ccc(C)cc1
8.22

Check the records and state pIC50 for Cc1nn2c(-c3cccc(C(F)(F)F)c3)cc(N3CCC[C@H]3CO)nc2c1-c1ccc(C(F)(F)F)cc1
7.18

Check the records and state pIC50 for Cc1ccc(-c2cnn3c(-c4cc(F)cc(F)c4)cc(N4CCC[C@H]4CO)nc23)cc1
6.64

Check the records and state pIC50 for CCc1ccc(-c2c(C)nn3c(-c4cccc(F)c4)cc(N4CCC[C@H]4CO)nc23)cc1
6.80

Check the records and state pIC50 for CCCOc1ccc(-c2c(C)nn3c(-c4ccc(F)cc4)cc(N4CCC[C@H]4CO)nc23)cc1F
6.51

Check the records and state pIC50 for Cc1ccc(-c2c(C)nn3c(-c4ccccc4F)cc(N4CCC[C@H]4CO)nc23)cc1
7.09

Check the records and state pIC50 for CCCOc1ccc(-c2c(C)nn3c(-c4ccc(F)cc4)cc(N4CCC[C@H]4CO)nc23)cc1
6.80

Check the records and state pIC50 for COc1ccc(-c2c(C)nn3c(-c4ccc(C)cc4)cc(N4CCC[C@H]4CO)nc23)cc1
6.46

Check the records and state pIC50 for CCOCc1nn2c(-c3cccc(C(F)(F)F)c3)cc(N(C)CCO)nc2c1-c1ccc2c(c1)OCO2
6.72

Check the records and state pIC50 for COc1ccc(-c2c(C)nn3c(-c4ccccc4)cc(N4CCC[C@H]4CO)nc23)cc1
6.85

Check the records and state pIC50 for CCOCc1nn2c(-c3cccc(Cl)c3)cc(N(C)CCO)nc2c1-c1ccc(OC)cc1
6.22

Check the records and state pIC50 for COc1cccc(-c2cc(N3CCC[C@H]3CO)nc3c(-c4ccc(OC)c(F)c4)c(C)nn23)c1
6.66

Check the records and state pIC50 for COc1ccc(-c2c(C)nn3c(-c4cccc(C(F)(F)F)c4)cc(N4CCC[C@H]4CO)nc23)cc1
7.12

Check the records and state pIC50 for COCc1nn2c(-c3cccc(C)c3)cc(N3CCC[C@H]3CO)nc2c1-c1ccc(OC)cc1
7.32

Check the records and state pIC50 for COCc1nn2c(-c3ccc(F)cc3)cc(N3CCC[C@H]3CO)nc2c1-c1ccc(OC)cc1
8.10

Check the records and state pIC50 for Cc1ccc(-c2c(C)nn3c(-c4ccc(F)cc4)cc(N4CCC[C@H]4CO)nc23)cc1
7.39

Check the records and state pIC50 for Cc1nn2c(-c3cccc(Cl)c3)cc(N3CCC[C@H]3CO)nc2c1-c1ccc(C(F)(F)F)cc1
6.60

Check the records and state pIC50 for Cc1ccc(-c2c(C)nn3c(-c4cccc(Cl)c4)cc(N4CCC[C@H]4CO)nc23)cc1
6.80

Check the records and state pIC50 for CCOCc1nn2c(-c3ccc(F)cc3)cc(N3CCC[C@H]3CO)nc2c1-c1ccc(Cl)cc1
8.10

Check the records and state pIC50 for CCOCc1nn2c(-c3cccc(F)c3)cc(N3CCC[C@H]3CO)nc2c1-c1ccc(OC)cc1
6.77

Check the records and state pIC50 for COc1ccc(-c2cc(N3CCC[C@H]3CO)nc3c(-c4ccc(C)cc4)c(C)nn23)cc1
6.62

Check the records and state pIC50 for C=Cc1ccc(-c2c(C)nn3c(-c4cccc(C)c4)cc(N4CCC[C@H]4CO)nc23)cc1
6.48

Check the records and state pIC50 for CCOCc1nn2c(-c3ccc(F)cc3)cc(N(C)CCO)nc2c1-c1ccc(C)cc1
7.55

Check the records and state pIC50 for OC[C@@H]1CCCN1c1cc(-c2cccc(F)c2)n2nc(C3CC3)c(-c3ccc(Cl)cc3)c2n1
6.82

Check the records and state pIC50 for COc1ccc(-c2c(C)nn3c(-c4cccc(C)c4)cc(N4CCC[C@H]4CO)nc23)cc1
6.68

Check the records and state pIC50 for Cc1ccc(-c2c(C)nn3c(-c4ccc(F)cc4)cc(N4CCC[C@H]4CO)nc23)cc1F
7.00
